Taken from patent US8530648B2.

Please respond with reported pKi for every item in the list.
TESTED_SYSTEM: hOx2R (Homo sapiens (Human), UniProt O43614)
Sequence (O43614 whole entry): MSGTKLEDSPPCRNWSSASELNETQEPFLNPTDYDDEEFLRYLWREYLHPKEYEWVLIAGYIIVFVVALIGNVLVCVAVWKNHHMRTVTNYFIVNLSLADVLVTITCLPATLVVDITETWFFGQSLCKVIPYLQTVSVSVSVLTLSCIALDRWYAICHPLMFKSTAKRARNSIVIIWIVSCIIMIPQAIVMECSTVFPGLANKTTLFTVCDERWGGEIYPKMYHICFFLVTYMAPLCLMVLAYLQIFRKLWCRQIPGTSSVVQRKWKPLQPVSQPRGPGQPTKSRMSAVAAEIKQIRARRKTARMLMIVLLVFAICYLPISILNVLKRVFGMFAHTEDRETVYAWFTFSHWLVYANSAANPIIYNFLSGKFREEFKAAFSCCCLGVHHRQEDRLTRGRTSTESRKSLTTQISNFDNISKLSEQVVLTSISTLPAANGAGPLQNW
PROTOCOL_DETAILS: Calcium accumulation in cells (FLIPR), hOx2R
CONDITIONS_USED: inhibition of orexin A induced calcium accumulation, Cheng and Prusoff correction
Answers are plain numbers, as −log10 of the molar value.

Would you please look over these solved cases?
1. O=C1N(Cc2cccc(-n3cccc3)c2)CCCC12CCN(c1cnc3ccccc3n1)CC2 [Example 35] : 6.57
2. Cc1cccc(CN2CCCC3(CCN(c4cnc5ccccc5n4)CC3)C2=O)c1 [Example 15] : 6.81
3. O=C1N(Cc2cccnc2)CCCC12CCN(c1cnc3ccccc3n1)CC2 [Example 64] : 6.14
4. O=C1N(Cc2cccc(-c3cnccn3)c2)CCCC12CCN(c1cnc3ccccc3n1)CC2 [Example 65] : 7.64
5. O=C1N(Cc2c[nH]c3ccccc23)CCCC12CCN(c1nc3ccccc3[nH]1)CC2 [Example 152] : 7.16
6. O=C1N(Cc2ccccc2-c2ncccn2)CCCC12CCN(c1cnc3ccccc3n1)CC2 [Example 151] : 6.17
7. O=C1N(Cc2cc(=O)[nH]c3ccccc23)CCCC12CCN(c1cnc3ccccc3n1)CC2 [Example 96] : 6.20
8. O=C1CCCC2(CCN(c3cnc4ccccc4n3)CC2)N1Cc1noc2ccccc12 [Example 135] : 6.73
9. O=C1N(Cc2cncn2Cc2ccccc2)CCCC12CCN(c1cnc3ccccc3n1)CC2 [Example 118] : 6.71
10. O=C1N(Cc2c[nH]c3ncccc23)CCCC12CCN(c1cnc3ccccc3n1)CC2 [Example 57] : 7.04

Each of the following entries comes with a recorded value; kindly state pKi for each.
1. O=C1N(Cc2c[nH]c3ccccc23)CCCC12CCN(c1cnc3ccccc3n1)CC2 [Example 1]
2. Cn1ccc2c(CN3C(=O)CCCC34CCN(c3cnc5ccccc5n3)CC4)cccc21 [Example 44]

Reply |
[7.52, 7.32]

Working through the 6 compounds below one at a time, give pKi for each.
1. CN1CCOc2c(CN3CCCC4(CCN(c5cnc6ccccc6n5)CC4)C3=O)cccc21 [Example 144]
2. O=C1N(Cc2cccc(C(F)(F)F)c2)CCCC12CCN(c1cnc3ccccc3n1)CC2 [Example 14]
3. Cc1cc2c(CN3CCCC4(CCN(c5cnc6ccccc6n5)CC4)C3=O)cccc2[nH]1 [Example 13]
4. O=C1N(Cc2cccc(Cl)c2)CCCC12CCN(c1nc3ccccc3[nH]1)CC2 [Example 28]
5. O=C1N(Cc2n[nH]c3ccccc23)CCCC12CCN(c1cnc3ccccc3n1)CC2 [Example 129]
6. O=C1N(Cn2nnc3ccccc32)CCCC12CCN(c1cnc3ccccc3n1)CC2 [Example 66]

Reply |
[6.22, 6.95, 7.46, 6.80, 8.05, 6.52]

Count: 8. Required value per item: pKi.
1. O=C1N(Cc2c[nH]c3ccccc23)CCCC12CCN(c1ncc3ccccc3n1)CC2 [Example 169]
2. O=C1N(Cc2c[nH]c3ccccc23)CCCC12CCN(c1cc3nccnc3cn1)CC2 [Example 167]
3. Cc1ccccc1CN1CCCC2(CCN(c3cnc4ccccc4n3)CC2)C1=O [Example 19]
4. O=C1N(Cc2cccc(-c3ccncc3)c2)CCCC12CCN(c1cnc3ccccc3n1)CC2 [Example 58]
5. O=C1N(Cc2c[nH]c3ccccc23)CCCC12CCN(c1nccc3occc13)CC2 [Example 156]
6. N#Cc1ccccc1CN1CCCC2(CCN(c3cnc4ccccc4n3)CC2)C1=O [Example 124]
7. Cn1ncc2cccc(CN3CCCC4(CCN(c5cnc6ccccc6n5)CC4)C3=O)c21 [Example 107]
8. COc1ccccc1-n1ccnc1CN1CCCC2(CCN(c3cnc4ccccc4n3)CC2)C1=O [Example 112]

Reply |
1: 7.15; 2: 7.09; 3: 6.31; 4: 6.66; 5: 7.64; 6: 6.85; 7: 6.94; 8: 5.80

I have 8 compounds here; please give me pKi for each one.
1. O=C1N(Cc2c[nH]c3ccccc23)CCCC12CCN(c1nc3ccccc3s1)CC2 [Example 52]
2. O=C1N(Cc2cccc3c2CCN3)CCCC12CCN(c1cnc3ccccc3n1)CC2 [Example 126]
3. N#Cc1cc(CN2CCCC3(CCN(c4cnc5ccccc5n4)CC3)C2=O)ccc1F [Example 94]
4. Cc1noc(-c2ccccc2)c1CN1CCCC2(CCN(c3cnc4ccccc4n3)CC2)C1=O [Example 32]
5. O=C1N(Cc2cccc3c2OCO3)CCCC12CCN(c1cnc3ccccc3n1)CC2 [Example 9]
6. O=C1N(Cc2cccc(Cl)c2)CCCC12CCN(c1nccc(-c3ccccc3)n1)CC2 [Example 29]
7. Cc1nc(-c2cccc(CN3CCCC4(CCN(c5cnc6ccccc6n5)CC4)C3=O)c2)no1 [Example 98]
8. Cc1nc(-c2ccccc2)oc1CN1CCCC2(CCN(c3cnc4ccccc4n3)CC2)C1=O [Example 119]

Reply |
6.75
6.57
6.55
6.86
7.46
6.21
7.30
6.54

---

Give measured inhibition at 10 µM for each item. Keep answers brief.
TESTED_SYSTEM: hOx1R (Homo sapiens (Human))
PROTOCOL_DETAILS: Calcium accumulation in cells (FLIPR), hOx1R
Format: cell-based
CONDITIONS_USED: measured at a concentration of 10 μM of compound
Protocol: Calcium Accumulation in Cells (FLIPR): Cells expressing human orexin 1 or human orexin 2 receptors, were seeded at 8,000 cells/well in 384 well black-walled clear bottom, poly-D-lysine coated plates. […] On the day of the experiment, the cells seeded in black plates were treated with assay buffer containing the Ca^2+ sensitive fluorescent dye Fluo-4-AM (2 μM), and probenecid (0.1 mM). […] Fluorescence measurements were then continued every 1 S for 120 S followed by every 4 S for 240 S. […]

1. O=C1N(Cc2ccccc2-c2ncccn2)CCCC12CCN(c1cnc3ccccc3n1)CC2 : 14%
2. O=C1N(Cc2cccc3c2OCCO3)CCCC12CCN(c1nccc3occc13)CC2 : 33%
3. O=C1N(Cc2c[nH]c3ccccc23)CCCC12CCN(c1cc(-n3ccnc3)ncn1)CC2 : 21%
4. Cc1ccccc1CN1CCCC2(CCN(c3cnc4ccccc4n3)CC2)C1=O : 12%
5. O=C1N(Cc2cccc(Cl)c2)CCCC12CCN(c1nc3ccccc3[nH]1)CC2 : 33%
6. O=C1N(Cc2ccccn2)CCCC12CCN(c1cnc3ccccc3n1)CC2 : 29%

// each listed molecule needs a value for inhibition at 10 µM
1. Cc1cccc(CN2CCCC3(CCN(c4cnc5ccccc5n4)CC3)C2=O)n1
2. O=C1N(Cc2ccc(C(F)(F)F)nc2)CCCC12CCN(c1cnc3ccccc3n1)CC2

Reply |
1: 14%; 2: 17%

Provide the reported inhibition at 10 µM of each entry below, same order.
1. Cn1nc2ccccc2c1CN1CCCC2(CCN(c3cnc4ccccc4n3)CC2)C1=O
2. O=C1N(Cc2nnnn2-c2ccccc2)CCCC12CCN(c1cnc3ccccc3n1)CC2
3. Cc1cc(CN2CCCC3(CCN(c4cnc5ccccc5n4)CC3)C2=O)nn1C
4. N#Cc1ccc(CN2CCCC3(CCN(c4cnc5ccccc5n4)CC3)C2=O)cn1

Reply |
44%
31%
40%
29%

I need inhibition at 10 µM for every entry listed below, if you could help.
1. O=C1N(Cc2cccc(-n3cccc3)c2)CCCC12CCN(c1cnc3ccccc3n1)CC2
2. CC(C)c1nc(CN2CCCC3(CCN(c4cnc5ccccc5n4)CC3)C2=O)co1
3. Cc1ccc2nc(N3CCC4(CCCN(Cc5c[nH]c6ccccc56)C4=O)CC3)sc2c1
4. O=C1N(Cc2c[nH]c3ccccc23)CCCC12CCN(c1nc3cc(Cl)ccc3o1)CC2
5. Cc1cc(CN2CCCC3(CCN(c4cnc5ccccc5n4)CC3)C2=O)on1

Reply |
1. 26%
2. < 10%
3. 22%
4. 48%
5. 47%

---

TESTED_SYSTEM: hOx1R (Homo sapiens (Human))
PROTOCOL_DETAILS: Calcium accumulation in cells (FLIPR), hOx1R
Format: cell-based
CONDITIONS_USED: measured at a concentration of 10 μM of compound
So I've got a bunch of compounds here, and I need their inhibition at 10 µM values.
Give bare numbers, in %.

Items follow; give inhibition at 10 µM for each.
1. Cc1cc(CN2CCCC3(CCN(c4cnc5ccccc5n4)CC3)C2=O)no1
2. O=C1N(Cc2ccc3[nH]ccc3c2)CCCC12CCN(c1cnc3ccccc3n1)CC2
3. Cc1cc(CN2CCCC3(CCN(c4cnc5ccccc5n4)CC3)C2=O)ccn1
4. Cn1cc(-c2ccccc2CN2CCCC3(CCN(c4cnc5ccccc5n4)CC3)C2=O)cn1
5. O=C1N(Cc2ccccc2)CCCC12CCN(c1nc3ccccc3[nH]1)CC2

Reply |
[11, 11, 29, 57, 0]

---

Answer each item with its documented inhibition at 10 µM.
TESTED_SYSTEM: hOx1R (Homo sapiens (Human), UniProt O43613)
Sequence (O43613 whole entry): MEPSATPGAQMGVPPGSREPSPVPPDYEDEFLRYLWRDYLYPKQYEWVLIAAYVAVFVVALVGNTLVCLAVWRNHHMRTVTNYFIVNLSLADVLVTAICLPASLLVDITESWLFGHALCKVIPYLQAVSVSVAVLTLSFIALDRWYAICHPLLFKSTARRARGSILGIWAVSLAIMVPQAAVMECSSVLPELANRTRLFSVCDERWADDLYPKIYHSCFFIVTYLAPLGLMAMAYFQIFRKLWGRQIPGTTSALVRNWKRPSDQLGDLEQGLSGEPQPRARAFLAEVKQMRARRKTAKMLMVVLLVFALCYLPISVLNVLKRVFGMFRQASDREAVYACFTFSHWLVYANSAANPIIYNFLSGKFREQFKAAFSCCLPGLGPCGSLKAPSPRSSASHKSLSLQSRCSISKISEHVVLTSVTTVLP
PROTOCOL_DETAILS: Calcium accumulation in cells (FLIPR), hOx1R
Type: cell-based
CONDITIONS_USED: measured at a concentration of 10 μM of compound
One number for each entry, in %.

# map each molecule to its inhibition at 10 µM
1. O=C1N(Cc2ccc(-n3cncn3)cc2)CCCC12CCN(c1cnc3ccccc3n1)CC2 [Example 81]
2. COc1cc(CN2CCCC3(CCN(c4cnc5ccccc5n4)CC3)C2=O)ccn1 [Example 45]
3. COc1cccc(CN2CCCC3(CCN(c4cnc5ccccc5n4)CC3)C2=O)c1OC [Example 18]
4. O=C1N(Cc2ccc(Cl)nc2)CCCC12CCN(c1cnc3ccccc3n1)CC2 [Example 78]

Reply |
13
19
3
15

Give inhibition at 10 µM for all molecules that follow.
1. Cn1c(CN2CCCC3(CCN(c4cnc5ccccc5n4)CC3)C2=O)nc2ccccc21 [Example 30]
2. O=C1N(Cc2cccnc2)CCCC12CCN(c1cnc3ccccc3n1)CC2 [Example 64]

Reply |
[17, 32]
